System: TAMH cells overexpressing Bcl-xL (TAMH-Bcl-xL, Tabx2s)
Assay: Cytotoxicity / apoptosis induction in TAMH cells overexpressing Bcl-xL
Assay type: cell-based
Settings: Table 4; TAMH-Bcl-xL cells; read-out: Bcl-xL
measured_property: pEC50
Expect pEC50 as a plain number equal to -log10 of the molar concentration.

### Prompt Item `Oc1c(Cl)cc(Cl)cc1/C=N/Nc1ccc(C(F)(F)F)cn1` has what recorded pEC50?
### Response 5.41

### Prompt `COc1cc(Br)cc(/C=N/Nc2ccc(C(F)(F)F)cc2)c1O` , same question.
### Response 5.57

### Prompt Next: `Oc1c(Br)cc(Cl)cc1/C=N/Nc1ccc(C(F)(F)F)cn1`
### Response 5.37

src = patent US8865901B2
